koff for assorted binders
- Tested on: T1, soluble cynomolgus GPNMB (recombinant extracellular domain) (cynomolgus, UniProt Q14956 23-499 (human entry), limits assumed)
- T1 chain: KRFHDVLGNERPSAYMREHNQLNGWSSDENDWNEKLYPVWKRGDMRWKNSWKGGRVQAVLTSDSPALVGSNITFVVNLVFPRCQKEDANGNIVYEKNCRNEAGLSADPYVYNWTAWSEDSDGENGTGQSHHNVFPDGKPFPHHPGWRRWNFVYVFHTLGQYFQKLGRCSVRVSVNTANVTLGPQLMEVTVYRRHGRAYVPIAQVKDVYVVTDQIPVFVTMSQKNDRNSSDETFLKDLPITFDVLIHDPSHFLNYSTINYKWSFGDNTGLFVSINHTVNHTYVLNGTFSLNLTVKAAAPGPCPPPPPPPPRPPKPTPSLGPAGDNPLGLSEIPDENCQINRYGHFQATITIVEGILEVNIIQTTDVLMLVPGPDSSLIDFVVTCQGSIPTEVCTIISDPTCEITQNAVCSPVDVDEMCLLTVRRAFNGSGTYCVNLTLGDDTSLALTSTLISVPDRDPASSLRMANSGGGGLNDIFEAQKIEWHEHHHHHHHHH
- Test description: SPR Biacore, IgG captured
# output: bare number, implied unit s⁻¹

anti-GPNMB antibody GPN-94 (antibody, V domains shown) VH: QVQLVQSGAEVKKPGASVKVSCKASGYTFTSYWMHWVRQAPGQGLEWMGEINPYDQRTNYAQKFQGRVTMTVDKSTSTVYMELSSLRSEDTAVYYCARSTGNYAWFAYWGQGTLVTVSS VL: DIVMTQSPDSLAVSLGERATINCKTSQDVSPSLAWYQQKPGQPPKLLIYSASKRYTGVPDRFSGSGSGTDFTLTISSLQAEDVAVYYCQQHYSIPLTFGGGTKVEIK: 0.00051

Query: Give a short answer stating reported koff for anti-GPNMB antibody GPN-91 (antibody, V domains shown) VH: QVQLQESGPGLVKPSETLSLTCTVSGISITTGNYRWSWIRQPPGKGLEWIGYIDYSGTITYNPSLKSRVTITRDTSKNQFSLELSSVTAADTAVYYCARDLTHWYFDVWGQGTLVTVSS VL: DIVMTQSPDSLAVSLGERATINCKSSRSVDYYGIGFLNWYQQKPGQPPKLLIYATSHQGSGVPDRFSGSGSGTDFTLTISSLQAEDVAVYYCQQQKERPPTFGGGTKVEIK .
Result: 0.00052

Query: Give a short answer stating reported koff for anti-GPNMB antibody GPN-86 (antibody, V domains shown) VH: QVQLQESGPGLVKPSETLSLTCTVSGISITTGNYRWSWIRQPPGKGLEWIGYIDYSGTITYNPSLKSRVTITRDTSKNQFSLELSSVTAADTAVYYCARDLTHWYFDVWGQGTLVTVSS VL: DIVMTQSPDSLAVSLGERATINCKSSRSVDYYGIGFLNWYQQKPGQPPKLLIYATSKQGSGVPDRFSGSGSGTDFTLTISSLQAEDVAVYYCQQQKEVPPTFGGGTKVEIK .
Result: 0.0011
